Biological target: T1, oligopeptide ATYPSGHLDM (SEQ ID NO: 1) (human and mouse)
T1 construct: Synthetic peptide; positions 148 to 157 of the human AQP3 polypeptide, identical in mouse; also called peptide used for immunization; oligopeptide 5
T1 peptide: ATYPSGHLDM
Assay: ELISA on peptide, Fab
metric: binding result

Incoming: Give the measured binding result of BC-B4 (Fab) (Fab, V domains shown) VH: QSVEESGGRLVTPGGSLTLTCTVSRFSLSSYAMTWVRQAPGKGLEWIGIINNDGISSTWYASWVKGRFTISKTSTTMDLKMTSLTTEDTATYFCARGGTSGYDIWGPGTVVTVSL VL: ALVLTQTPSPVSAAVGGTVTINCQSSQSVYKNYLSWYQQKPGQPPKLLIYGASTLASGVPSRFKGSGSGTQFTLTISDVQCDDAATYYCAGGYRGSGDIFAFGGGTEVVVK .
Outgoing: binds

Incoming: Give the measured binding result of SC-G8 (Fab) (Fab, V domains shown) VH: QSVEESGGRLVMPGGSLTLTCTASGFSLSSYAMTWVRQAPGKGLEWIGIINNDGSGSTWYASWVKGRFTISKTSTTMDLKMTSLTTEDTATYFCARGGTSGYDIWGPGTLVTVSL VL: AAVLTQTPSPVSAAVGGTVTINCQSSPSVYKNYLSWYQQKPGQPPKLLIYKASTLASGVPSRFKGSGSGTQFTLTISDVQCDDAATYYCAGGYRGYSDIFAFGGGTEVVVK .
Outgoing: binds

Incoming: Give the measured binding result of SC-B2 (Fab) (Fab, V domains shown) VH: QEQLMESRGRLVTPGGSLTLTCTVSRFSLSNYAMTWVRQAPGKGLEWIGIINNDGISSTWYASWVKGRFTISKTSTTMDLKMTSLTTEDTATYFCARGGTSGYDIWGPGTLVTVSL VL: AQGPTQTPSPVSAAVGGTVTINCQSSPSVYKNYLSWYQQKPGQPPKLLIYGASTLASGVPSRFKGSGSGTQFTLTISDVQCDDAATYYCAGGYRGSGDIFAFGGGTEVVVK .
Outgoing: binds

From: patent US20220298237A1
